Values from patent US10307425B2

Target: TgCDPK1 (Toxoplasma gondii, UniProt Q9BJF5)
Sequence (Q9BJF5 1-507): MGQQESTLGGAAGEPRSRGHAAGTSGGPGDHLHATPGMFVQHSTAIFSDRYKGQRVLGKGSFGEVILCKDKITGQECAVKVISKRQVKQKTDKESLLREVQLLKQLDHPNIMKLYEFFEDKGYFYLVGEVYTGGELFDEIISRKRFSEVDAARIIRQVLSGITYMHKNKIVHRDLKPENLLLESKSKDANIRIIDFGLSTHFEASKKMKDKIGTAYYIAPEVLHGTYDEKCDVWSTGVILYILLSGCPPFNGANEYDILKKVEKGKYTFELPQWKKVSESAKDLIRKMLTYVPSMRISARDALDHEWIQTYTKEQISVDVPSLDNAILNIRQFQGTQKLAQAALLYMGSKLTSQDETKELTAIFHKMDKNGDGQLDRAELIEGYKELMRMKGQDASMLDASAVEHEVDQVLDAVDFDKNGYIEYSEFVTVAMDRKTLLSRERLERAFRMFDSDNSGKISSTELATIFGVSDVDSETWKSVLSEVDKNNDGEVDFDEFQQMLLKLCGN
Assay: biochemical
pIC50: −log10 of the molar value.

[
  {
    "Compound Smiles": "CCOc1ccc2ccc(-c3nn(CC4CCNCC4)c4ncnc(N)c34)cc2c1",
    "pIC50": 7.72
  },
  {
    "Compound Smiles": "CCOc1ccc2cc(-c3nn(C(C)C)c4ncnc(N)c34)ccc2n1",
    "pIC50": 8.70
  },
  {
    "Compound Smiles": "CCOc1ccc2cc(-c3nn(CC4(O)CNC4)c4ncnc(N)c34)ccc2n1",
    "pIC50": 8.54
  },
  {
    "Compound Smiles": "CCOc1ccc2cc(-c3nn(CC4(C)COC4)c4ncnc(N)c34)ccc2c1",
    "pIC50": 8.54
  },
  {
    "Compound Smiles": "CCOc1ccc2cc(-c3nc(CC4CCNCC4)n4ccnc(N)c34)ccc2c1",
    "pIC50": 8.00
  },
  {
    "Compound Smiles": "CN1CCC(C#N)(Cn2nc(-c3ccc4nc(OC5CC5)ccc4c3)c3c(N)ncnc32)CC1",
    "pIC50": 8.26
  },
  {
    "Compound Smiles": "Nc1ncnc2c1c(-c1ccc3cc(OC(F)F)ccc3c1)nn2CC1(O)CCNCC1",
    "pIC50": 8.12
  },
  {
    "Compound Smiles": "CCOc1ccc2cc(-c3nn(CC4(C#N)CCNCC4)c4ncnc(N)c34)ccc2c1",
    "pIC50": 8.57
  }
]

====

Test: in vivo
Conditions: BALB/c, mouse, po, 10 mg/kg
Measurement Label: Cmax (µM)

[
  {
    "Compound Smiles": "CCOc1ccc2cc(-c3nn(CC4CCN(C)CC4)c4ncnc(N)c34)ccc2c1",
    "Measured": 0.75
  }
]

====

Target: TgCDPK1 (Toxoplasma gondii, UniProt Q9BJF5)
Experiment: biochemical

[
  {
    "Molecule": "CN1CCC(Cn2nc(-c3ccc4cc(OCC#N)ccc4c3)c3c(N)ncnc32)CC1 [Example 73]",
    "IC50 (nM)": 73.8
  },
  {
    "Molecule": "CC(C)(O)Cn1nc(-c2ccc3cc(OCC#N)ccc3c2)c2c(N)ncnc21 [Example 88]",
    "IC50 (nM)": 112
  },
  {
    "Molecule": "Nc1ncnc2c1c(-c1ccc3cc(OC4CC4)ccc3c1)nn2CC1(O)CNC1 [Example 90]",
    "IC50 (nM)": 5.1
  },
  {
    "Molecule": "Nc1ncnc2c1c(-c1ccc3cc(OC4CC4)ccc3c1)nn2CC1(O)CCC1 [Example 59]",
    "IC50 (nM)": 8.6
  },
  {
    "Molecule": "CCOc1ccc2cc(-c3nn(CC4(O)CCN(C)CC4)c4ncnc(N)c34)ccc2n1 [Example 80]",
    "IC50 (nM)": 23.1
  },
  {
    "Molecule": "COCCOc1ccc2cc(-c3nn(CC(C)(C)C)c4ncnc(N)c34)ccc2n1 [Example 38]",
    "IC50 (nM)": 3.8
  },
  {
    "Molecule": "Nc1ncnc2c1c(-c1ccc3cc(OC4CCC4)ccc3c1)nn2CC1CCOCC1 [Example 30]",
    "IC50 (nM)": 2.6
  },
  {
    "Molecule": "CC(C)Cn1nc(-c2ccc3cc(OCCO)ccc3c2)c2c(N)ncnc21 [Example 34]",
    "IC50 (nM)": 5.8
  }
]
